Target: T1, human MET ECD (human, UniProt P08581 25-932)
T1 construct: range 1-932; recombinant ECD made by the applicants; the stated range begins at residue 1, so it includes the signal peptide of the entry; also called hMET; hMET ECD
T1 sequence (P08581 25-932 limits assumed, form in doubt): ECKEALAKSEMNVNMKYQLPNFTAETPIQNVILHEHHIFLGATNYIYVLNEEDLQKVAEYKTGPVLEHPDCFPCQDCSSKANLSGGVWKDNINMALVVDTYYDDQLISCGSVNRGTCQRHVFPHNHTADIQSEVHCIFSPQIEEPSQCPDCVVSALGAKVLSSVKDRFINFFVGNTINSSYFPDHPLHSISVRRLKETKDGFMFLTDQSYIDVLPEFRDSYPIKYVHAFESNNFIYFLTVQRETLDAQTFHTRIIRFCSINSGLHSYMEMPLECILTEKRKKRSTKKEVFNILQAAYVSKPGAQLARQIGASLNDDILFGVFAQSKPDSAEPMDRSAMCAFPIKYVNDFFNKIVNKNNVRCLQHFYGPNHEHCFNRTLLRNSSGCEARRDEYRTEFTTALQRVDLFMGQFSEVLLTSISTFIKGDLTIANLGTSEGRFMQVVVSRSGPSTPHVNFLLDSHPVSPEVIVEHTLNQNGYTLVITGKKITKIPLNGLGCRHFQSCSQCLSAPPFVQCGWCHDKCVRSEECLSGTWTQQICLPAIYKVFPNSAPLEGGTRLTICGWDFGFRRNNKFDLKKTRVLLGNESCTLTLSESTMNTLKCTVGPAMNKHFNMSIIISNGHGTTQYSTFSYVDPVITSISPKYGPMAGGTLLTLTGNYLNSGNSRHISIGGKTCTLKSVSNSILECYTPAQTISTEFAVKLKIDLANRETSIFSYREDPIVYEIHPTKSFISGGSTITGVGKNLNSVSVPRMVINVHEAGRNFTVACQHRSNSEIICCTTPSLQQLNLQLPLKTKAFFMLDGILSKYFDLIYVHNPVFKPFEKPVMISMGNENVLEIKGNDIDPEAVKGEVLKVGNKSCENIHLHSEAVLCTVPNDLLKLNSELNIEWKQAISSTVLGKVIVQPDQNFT
Assay: ELISA, MET ECD in solid phase, mAb 0-20 nM
Protocol: Production (by transient transfection of mammalian cells) and purification (by protein A affinity chromatography) of the resulting chimeric llama-human IgG1 molecules was outsourced to U-protein Express. Binding of chimeric mAbs to MET was determined by ELISA using hMET or mMET ECD in solid phase and increasing concentrations of antibodies (0-20 nM) in solution. […]
In this section we review reported EMAX (OD450) values for a set of binders.
Dear colleague, please send the value followed by its unit.

// below: answered binders
72F8 chimeric llama-human IgG1 mAb (antibody, V domains shown, llama VH on human IgG1 CH1-CH2-CH3, llama VL on human lambda CL) VH: ELQLVESGGGLVQPGGSLRLSCAASGFTFSNYVMSWVRQAPGKGLEWVSDTNSGGSTSYADSVKGRFTISRDNAKNTLYLQMNSLKPEDTALYYCARSFFYGMNYWGKGTQVTVSS VL: QSALTQPPSLSASPGSSVRLTCTLSSGNNIGSYDISWYQQKAGSPPRYLLNYYTDSRKHQDSGVPSRFSGSKDASANAGLLLISGLQPEDEADYYCSAYKSGSYRWVFGGGTHVTVL :: 2.78 AU
71G2 chimeric llama-human IgG1 mAb (antibody, V domains shown, llama VH on human IgG1 CH1-CH2-CH3, llama VL on human lambda CL) VH: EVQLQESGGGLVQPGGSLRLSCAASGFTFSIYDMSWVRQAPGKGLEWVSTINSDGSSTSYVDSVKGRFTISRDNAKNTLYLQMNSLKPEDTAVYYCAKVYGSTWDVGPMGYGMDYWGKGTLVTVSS VL: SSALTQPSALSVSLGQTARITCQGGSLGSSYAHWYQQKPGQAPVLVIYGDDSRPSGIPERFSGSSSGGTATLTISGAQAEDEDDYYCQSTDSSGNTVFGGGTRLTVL :: 3.09 AU

Read the next record carefully.
## Input Report EMAX (OD450) for 71C3 chimeric llama-human IgG1 mAb (antibody, V domains shown, llama VH on human IgG1 CH1-CH2-CH3, llama VL on human lambda CL) VH: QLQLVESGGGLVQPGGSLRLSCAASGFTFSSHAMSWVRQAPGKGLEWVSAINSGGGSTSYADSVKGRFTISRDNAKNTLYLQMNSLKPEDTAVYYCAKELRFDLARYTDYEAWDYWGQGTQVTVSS VL: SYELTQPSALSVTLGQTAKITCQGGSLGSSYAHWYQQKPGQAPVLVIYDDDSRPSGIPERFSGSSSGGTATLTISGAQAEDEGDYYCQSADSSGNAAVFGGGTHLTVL
## Output 2.46 AU

Data origin: patent US20210087281A1
